TESTED SYSTEM: pooled human IgG (human IgG1,2,3 and 4)
ASSAY READOUT: Enzyme Activity Endpoint Assay: Fab'2 (ng/µL)
Give the number; ng/µL is assumed, so skip it.

PROTEIN | ENDPOINT VALUE
PRT-168 (protein) MANQEIRYSEVTPYHVTSVWTKGVTPPEDFTQGEDVFHAPYKANQGWYDITKTFNGKDDLLCGAATAGNMLHWWFDQNKDQIKRYLEEHPEKQKINFNGEQMFDVKEAIDTKNSQLDSKLFEYFKEKAFPYLSTKHLGVFPDHVIDMFINGYRLSLTNHGPTPVKEGSKDPRGGIFDAVFTRGDQSKLLTSRHDFKEKNLKEISDLIKKELTEGKALGLSHTYANVRINHVINLWGADFDSNGNLKAIYVTDSDSNASIGMKKYFVGVNSAGKVAISAKEIKEDNIGAQVLGLFTLSTGQDSWNQTN | 628

Next up:
Query (protein): PRT-190 (protein) MANQEIRYSEVTPYHVTSVWTKGVTPPDHDFRKIVDGEDVFHAPYVANQGWYDITKTFNGKDDLLCGAATAGNMLHWWFDQNKDQIKRYLEEHPEKQKINFNGEQMFDVKEAIDTKNHQLDSKLFEYFKEKAFPYLSTKHLGVFPDHVIDMFINGYRLSLTNHGPTPVKEGSKDPRGGIFDAVFTRGDQSKLLTSRHDFKEKNLKEISDLIKKELTEGKALGLSHTYANVRINHVINLWGADFDSNGNLKAIYVTDSDSNASIGMKKYFVGVNSAGKVAISAKEIKEDNIGAQVLGLFTLSTGQDSWNQTN ; field requested: Enzyme Activity Endpoint Assay: Fab'2
323
